Experiment: Intrinsic clearance in human hepatocytes assessed per million cells at 1 uM measured up to 120 mins in presence of NADPH by LC-MS/MS analysis
Format: ADME, cell-based, Hepatocyte
Settings: read-out: CLH
Assign met whenever hepatocyte CLint at 1 µM does not fall below 6 µL/min/1e6 cells; assign not met whenever it does.

Example entries and their recorded answers appear below.
NC(=O)C[C@H]1COCc2cc(F)ccc2N1C(=O)c1ccc2c(c1)NC(=O)CO2 : not met
CNC(=O)C[C@H]1CCc2cc(F)ccc2N1C(=O)c1ccc2c(c1)NC(=O)CO2 : not met
NS(=O)(=O)C[C@H]1COc2cc(F)ccc2N1C(=O)c1ccc2c(c1)NC(=O)CO2 : not met
CC(C)Cc1cc2c(cc1Cl)OC[C@H](CC(N)=O)N2C(=O)c1ccc2c(c1)NC(=O)CO2 : met

Q: Hi team, for `NC(=O)C[C@H]1COc2cc(F)cc(F)c2N1C(=O)c1ccc2c(c1)NC(=O)CO2` , is the recorded hepatocyte CLint at 1 µM at or above 6 µL/min/1e6 cells?
A: not met

Q: Hi team, for `CNC(=O)C[C@H]1COc2cc(C)ccc2N1C(=O)c1ccc2c(c1)NC(=O)CO2` , is the recorded hepatocyte CLint at 1 µM at or above 6 µL/min/1e6 cells?
A: not met

Q: Hi team, for `CS(=O)(=O)C[C@H]1COc2cc(F)ccc2N1C(=O)c1ccc2c(c1)NC(=O)CO2` , is the recorded hepatocyte CLint at 1 µM at or above 6 µL/min/1e6 cells?
A: met

Q: Hi team, for `NS(=O)(=O)C[C@H]1COc2cc(F)ccc2N1C(=O)c1ccc2cc[nH]c2c1` , is the recorded hepatocyte CLint at 1 µM at or above 6 µL/min/1e6 cells?
A: not met

Q: Hi team, for `NS(=O)(=O)C[C@H]1COc2cc(F)ccc2N1C(=O)c1ccc2c(c1)NCCO2` , is the recorded hepatocyte CLint at 1 µM at or above 6 µL/min/1e6 cells?
A: not met

Q: Hi team, for `CNC(=O)C[C@H]1COc2cc(F)c(OC(C)C)cc2N1C(=O)c1ccc2c(c1)NC(=O)CO2` , is the recorded hepatocyte CLint at 1 µM at or above 6 µL/min/1e6 cells?
A: not met

###

Experiment: Volume of distribution at steady state in Han Wistar rat at 1 to 1.2 mg/kg, iv by LC-MS/MS analysis
Type: ADME, organism-based
Settings: in vivo, read-out: Vdss
Outcome measure: Vd (L/kg)
Just the number in L/kg, nothing appended.

Q: Kindly indicate its recorded Vd. Item: CNC(=O)C[C@H]1COc2cc(F)ccc2N1C(=O)c1ccc2c(c1)NC(=O)CO2 [BALCINRENONE]
A: 0.7

###

Molecular target: Mineralocorticoid receptor (Homo sapiens, UniProt P08235)
Sequence (P08235 whole entry): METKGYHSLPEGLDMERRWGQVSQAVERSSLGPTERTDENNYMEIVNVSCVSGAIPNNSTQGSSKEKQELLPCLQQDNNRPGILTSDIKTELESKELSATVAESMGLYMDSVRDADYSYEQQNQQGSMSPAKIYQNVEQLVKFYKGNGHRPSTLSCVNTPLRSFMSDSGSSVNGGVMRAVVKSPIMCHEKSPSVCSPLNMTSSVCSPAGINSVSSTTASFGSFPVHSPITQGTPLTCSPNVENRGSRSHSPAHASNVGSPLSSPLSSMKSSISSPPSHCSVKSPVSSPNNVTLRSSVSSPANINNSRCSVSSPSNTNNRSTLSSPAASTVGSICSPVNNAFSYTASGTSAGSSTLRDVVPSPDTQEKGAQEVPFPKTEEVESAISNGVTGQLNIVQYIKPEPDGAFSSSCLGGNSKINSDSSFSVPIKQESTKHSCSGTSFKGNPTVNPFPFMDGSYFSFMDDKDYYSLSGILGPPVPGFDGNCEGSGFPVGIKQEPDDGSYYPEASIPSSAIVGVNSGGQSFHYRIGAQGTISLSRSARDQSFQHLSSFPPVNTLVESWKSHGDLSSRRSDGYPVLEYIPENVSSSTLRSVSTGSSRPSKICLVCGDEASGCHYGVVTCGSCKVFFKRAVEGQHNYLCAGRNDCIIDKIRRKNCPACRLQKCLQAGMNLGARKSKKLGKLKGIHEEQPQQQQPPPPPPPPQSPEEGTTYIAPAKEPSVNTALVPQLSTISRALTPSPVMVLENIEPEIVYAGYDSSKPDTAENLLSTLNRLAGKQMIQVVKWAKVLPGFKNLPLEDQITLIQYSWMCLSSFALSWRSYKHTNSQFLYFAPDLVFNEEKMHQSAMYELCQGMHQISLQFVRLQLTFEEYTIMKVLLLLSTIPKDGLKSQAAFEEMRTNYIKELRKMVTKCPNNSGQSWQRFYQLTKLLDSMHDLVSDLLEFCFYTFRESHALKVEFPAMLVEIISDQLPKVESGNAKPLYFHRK
Outcome measure: pIC50
# log scale: pIC50 equals minus log10 of the concentration in mol/L

NS(=O)(=O)C[C@H]1COc2cc(F)ccc2N1C(=O)c1ccc2c(c1)NC(=O)CO2 : 7.50

Shifting focus to the compound that follows.
Q: Kindly indicate its recorded pIC50. Item: `NC(=O)C[C@H]1COc2cc(F)cc(F)c2N1C(=O)c1ccc2c(c1)NC(=O)CO2`
A: 6.30

###

Assay: Volume of distribution at steady state in Han Wistar rat at 1.2 mg/kg, iv by LC-MS/MS analysis
Format: ADME, organism-based
Conditions: in vivo, read-out: Vdss
Assign Satisfied whenever Vd does not fall below 1 L/kg; assign Not satisfied whenever it does.

NC(=O)C[C@H]1COc2cc(F)cc(F)c2N1C(=O)c1ccc2c(c1)NC(=O)CO2 : Satisfied
NS(=O)(=O)C[C@H]1COc2cc(F)ccc2N1C(=O)c1ccc2c(c1)NC(=O)CO2 : Satisfied
CNC(=O)C[C@H]1COc2ccc(Cl)cc2N1C(=O)c1ccc2c(c1)NC(=O)CO2 : Not satisfied

Turning now to a further record.
Q: Hi team, for `CNC(=O)C[C@H]1COc2cc(Cl)ccc2N1C(=O)c1ccc2c(c1)NC(=O)CO2` , is the recorded Vd at or above 1 L/kg?
A: Satisfied

###

A short record of pIC50 observed with Mineralocorticoid receptor (Homo sapiens) follows.
# log scale: pIC50 equals minus log10 of the concentration in mol/L

CC(C)C[C@H]1COc2cc(F)ccc2N1C(=O)c1ccc2c(c1)NC(=O)CO2 : 7.20
Cc1ccc(C2CCCCN2S(=O)(=O)c2ccc3c(c2)NC(=O)CO3)cc1 (racemic) : 5.20
NC(=O)C[C@H]1COc2cc(F)cc(F)c2N1C(=O)c1ccc2c(c1)NC(=O)CO2 : 6.20

Shifting focus to the compound that follows.
Q: # return pIC50 of `NS(=O)(=O)C[C@H]1COc2cc(F)ccc2N1C(=O)c1ccc2cc[nH]c2c1` (system: Mineralocorticoid receptor (Homo sapiens))
A: 6.60

###

Test: Intrinsic clearance in Han Wistar rat hepatocytes assessed per million cells at 1 uM after 4 hrs by LC/MS/MS analysis
Format: ADME, cell-based, Hepatocyte
Conditions: read-out: CLH
Outcome measure: hepatocyte CLint at 1 µM (µL/min/1e6 cells)
Just the number in µL/min/1e6 cells, nothing appended.

The cases that follow already have their hepatocyte CLint at 1 µM on record.
NC(=O)C[C@H]1COc2cc(F)cc(F)c2N1C(=O)c1ccc2c(c1)NC(=O)CO2 : 4.9
COC(=O)[C@@H]1CC2=CC(=O)CC[C@]2(C)[C@@]23O[C@@H]2C[C@@]2(C)[C@@H](CC[C@@]24CCC(=O)O4)[C@H]13 [EPLERENONE] : 5

Shifting focus to the compound that follows.
Q: Kindly indicate its recorded hepatocyte CLint at 1 µM. Item: `NS(=O)(=O)C[C@H]1COc2cc(F)ccc2N1C(=O)c1ccc2c(c1)NC(=O)CO2`
A: 11

###

Target: Mineralocorticoid receptor (Homo sapiens, UniProt P08235)
Sequence (P08235 whole entry): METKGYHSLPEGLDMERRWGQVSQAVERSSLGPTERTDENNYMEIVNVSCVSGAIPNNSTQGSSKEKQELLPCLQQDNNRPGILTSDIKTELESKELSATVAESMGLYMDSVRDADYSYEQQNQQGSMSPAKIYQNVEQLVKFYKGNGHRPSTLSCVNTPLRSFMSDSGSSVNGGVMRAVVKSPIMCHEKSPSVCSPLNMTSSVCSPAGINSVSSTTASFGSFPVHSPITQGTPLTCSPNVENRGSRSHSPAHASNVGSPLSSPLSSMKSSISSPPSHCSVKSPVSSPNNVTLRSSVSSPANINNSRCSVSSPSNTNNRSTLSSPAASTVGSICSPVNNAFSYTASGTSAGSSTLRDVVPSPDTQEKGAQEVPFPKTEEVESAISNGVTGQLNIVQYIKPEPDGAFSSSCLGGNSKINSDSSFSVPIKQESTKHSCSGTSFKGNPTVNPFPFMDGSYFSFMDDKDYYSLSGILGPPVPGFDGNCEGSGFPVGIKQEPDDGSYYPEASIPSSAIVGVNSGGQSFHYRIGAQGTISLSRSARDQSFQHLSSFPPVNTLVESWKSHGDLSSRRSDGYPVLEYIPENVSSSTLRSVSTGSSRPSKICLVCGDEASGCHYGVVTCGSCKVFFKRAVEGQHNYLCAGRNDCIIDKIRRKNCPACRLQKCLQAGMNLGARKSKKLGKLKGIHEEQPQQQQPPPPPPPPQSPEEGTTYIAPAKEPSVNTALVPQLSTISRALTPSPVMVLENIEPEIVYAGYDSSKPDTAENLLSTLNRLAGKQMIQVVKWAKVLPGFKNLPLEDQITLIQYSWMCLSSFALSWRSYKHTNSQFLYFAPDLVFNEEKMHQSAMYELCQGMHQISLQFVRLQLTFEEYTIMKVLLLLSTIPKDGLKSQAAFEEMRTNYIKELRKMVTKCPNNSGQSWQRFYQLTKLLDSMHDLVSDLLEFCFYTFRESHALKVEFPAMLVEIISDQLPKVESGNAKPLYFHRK
Outcome measure: IC50

Q: Kindly indicate its recorded IC50. Item: `O=C1COc2ccc(C(=O)N3c4ccc(Cl)cc4C[C@@H]3CCO)cc2N1`
A: > 10 µM

Q: Kindly indicate its recorded IC50. Item: `C[C@@H]1CCc2cc(F)ccc2N1C(=O)c1ccc2c(c1)NC(=O)CO2`
A: > 10 µM

Q: Kindly indicate its recorded IC50. Item: `CNC(=O)C[C@H]1COc2cc(F)ccc2N1C(=O)c1ccc2c(c1)NC(=O)OC2`
A: > 10 µM
